Recorded RP-LC retention time for the following compounds
test: gradient 5% acetonitrile 3 min, to 50% in 2 min, to 85% in 15 min, held 3 min, 100 µL/min; conditions: column: Zorbax Extend-C18 2.1 x 50 mm; eluents: water / acetonitrile, 0.1% formic acid
Just the number in s, nothing appended.

Known results for compounds:
Compound: O=C(Cn1cccc1-c1nnc(C2CCC2)o1)Nc1cccc(Br)c1
RP-LC retention time [s]: 974

Compound: O=C(N[C@H]1C[C@@H]2C[C@H]1N(C(=O)Cc1c(F)cccc1Cl)C2)c1ccccc1
RP-LC retention time [s]: 827

Compound: Cc1nn(-c2cccc(Cl)c2)c2nc(N3CCCC(C(=O)NC4CC4)C3)sc12 (stereo not drawn)
RP-LC retention time [s]: 1060

Compound: c1ccc(O[C@H]2CN(C3CCNCC3)[C@H]2c2ccncc2)cc1
RP-LC retention time [s]: 552

Compound: CCc1ccc(CNC(=O)Cn2c(C)nc3onc(CC)c3c2=O)cc1
RP-LC retention time [s]: 885

Compound: CCn1ccc(C(=O)Nc2ccc3c(c2)Sc2ncccc2C(=O)N3C)n1
RP-LC retention time [s]: 698

Query :: Report RP-LC retention time, nothing else, for this compound: `Cc1oc(-c2[nH]ncc2C(=O)N(C)C)cc1S(=O)(=O)NCCN1CCOCC1`
Result :: 543

Query :: Report RP-LC retention time, nothing else, for this compound: `O=C1NC2(CCN(C(=O)Nc3ccccc3)CC2)Oc2ccccc21`
Result :: 721
